Let's look at some compounds and their measured fraction unbound at 4 h, 5 µM.
experiment: Plasma protein binding (human); format: in vitro ADME
value-kind: fraction unbound at 4 h, 5 µM

1) CC(C)[C@H](NC(=O)[C@H](C)NC(=O)[C@@H](NC(=O)C1CC[N+](C)(C)CC1)C(C)(C)C)C(=O)C(=O)NCc1ccccc1: 0.37
2) CC(C)[C@H](NC(=O)[C@H](C)NC(=O)[C@@H](NC(=O)c1ccccc1)C(C)(C)C)C(=O)C(=O)NCc1ccccc1: 0.004

----------
assay: thermodynamic solubility; assay type: physicochemical; settings: thermodynamic from solid
value-kind: solubility thermodynamic (µM)

1. CC(C)[C@H](NC(=O)[C@H](C)NC(=O)[C@@H](NC(=O)c1ccccc1)C(C)(C)C)C(=O)C(=O)NCc1ccccc1: 84
